Test system: eIF2α phosphorylation (eIF2•GTP•Met-tRNAi ternary complex; HRI activation)
Experiment: surrogate dual luciferase eIF2α phosphorylation (ternary complex) assay
Type: cell-based, human
Conditions: 7.5 μM compound
OUTCOME_MEASURE: Emax (F/R)
Dear colleague, please return just the value in F/R, with no unit written.

Use the examples below as a reference point.
Problem: Please indicate Emax (F/R) recorded for CSc1ccccc1NC(=O)N[C@H]1CC[C@H](OCc2c(F)cccc2F)CC1 [II-10o]
Result: 0.82

Problem: Please indicate Emax (F/R) recorded for COc1ccc(NC(=O)N[C@H]2CC[C@H](OCc3c(F)cccc3F)CC2)cc1
Result: 0.74

Next item in the queue.
Problem: Please indicate Emax (F/R) recorded for O=C(Nc1ccccc1I)N[C@H]1CC[C@H](OCc2c(F)cccc2F)CC1
Result: 0.81

----------
Catalogue of compounds with associated Emax (F/R)
Test system: eIF2α phosphorylation (eIF2•GTP•Met-tRNAi ternary complex; HRI activation)
Assay: surrogate dual luciferase eIF2α phosphorylation (ternary complex) assay
Type: cell-based, human
Conditions: ternary complex assay; F/R normalized to vehicle (DMSO = 1)
Dear colleague, please return just the value in F/R, with no unit written.

Problem: Please indicate Emax (F/R) recorded for O=C(Nc1ccc(C(=O)O)cc1)NC1CCC(Oc2ccc(F)cc2)CC1 (stereo not shown) [Compound I-12p]
Result: 3.49

Problem: Please indicate Emax (F/R) recorded for O=C(Nc1cccc(Br)c1)NC1CCC(Oc2ccc(F)cc2)CC1 (stereo not shown)
Result: 9.52

Problem: Please indicate Emax (F/R) recorded for O=C(Nc1ccccc1Br)NC1CCC(Oc2ccc(F)cc2)CC1 (stereo not shown)
Result: 5.23

Problem: Please indicate Emax (F/R) recorded for O=C(Nc1cccc(Cl)c1)NC1CCC(Oc2ccc(F)cc2)CC1 (stereo not shown)
Result: 8.76

Problem: Please indicate Emax (F/R) recorded for O=C(Nc1ccc(OC(F)(F)F)cc1)NC1CCC(Oc2ccc(F)cc2)CC1 (stereo not shown)
Result: 15.32

Further cases:
Problem: Please indicate Emax (F/R) recorded for O=C(Nc1ccccc1I)NC1CCC(Oc2ccc(F)cc2)CC1 (stereo not shown)
Result: 3.25

Problem: Please indicate Emax (F/R) recorded for O=C(Nc1cccc(F)c1)NC1CCC(Oc2ccc(F)cc2)CC1 (stereo not shown)
Result: 6.54

Problem: Please indicate Emax (F/R) recorded for O=C(Nc1cccc(C(=O)O)c1)NC1CCC(Oc2ccc(F)cc2)CC1 (stereo not shown) [Compound I-12m]
Result: 0.88

Problem: Please indicate Emax (F/R) recorded for O=C(Nc1ccc([N+](=O)[O-])cc1)NC1CCC(Oc2ccc(F)cc2)CC1 (stereo not shown)
Result: 9.00

Problem: Please indicate Emax (F/R) recorded for CSc1ccccc1NC(=O)NC1CCC(Oc2ccc(F)cc2)CC1 (stereo not shown) [Compound I-10o]
Result: 0.92

----------
Tested on: HT-29
Test: cell proliferation assay, HT-29
Type: cell-based
Details: Homo sapiens; HT-29, Colon
OUTCOME_MEASURE: pIC50
pIC50 field: float, defined as -log10 of concentration (mol/L).

Problem: Quote pIC50 with test system HT-29 for O=C(Nc1cccc(C(F)(F)F)c1)NC1CCC(Oc2ccc(OC(F)(F)F)cc2)CC1 (stereo not shown)
Result: 5.57

----------
Tested on: eIF2α phosphorylation (eIF2•GTP•Met-tRNAi ternary complex; HRI activation)
Test: surrogate dual luciferase eIF2α phosphorylation (ternary complex) assay
Type: cell-based, human
Settings: 7.5 μM compound
OUTCOME_MEASURE: Emax (F/R)
Dear colleague, please return just the value in F/R, with no unit written.

Use the examples below as a reference point.
Problem: Quote Emax (F/R) with test system eIF2α phosphorylation (eIF2•GTP•Met-tRNAi ternary complex; HRI activation) for CSc1ccc(NC(=O)N[C@H]2CC[C@H](OCc3c(F)cccc3F)CC2)cc1 [II-10p]
Result: 0.94

Problem: Quote Emax (F/R) with test system eIF2α phosphorylation (eIF2•GTP•Met-tRNAi ternary complex; HRI activation) for O=C(Nc1ccccc1F)N[C@H]1CC[C@H](OCc2c(F)cccc2F)CC1
Result: 0.96

Problem: Quote Emax (F/R) with test system eIF2α phosphorylation (eIF2•GTP•Met-tRNAi ternary complex; HRI activation) for COc1ccccc1NC(=O)N[C@H]1CC[C@H](OCc2c(F)cccc2F)CC1
Result: 0.94

Problem: Quote Emax (F/R) with test system eIF2α phosphorylation (eIF2•GTP•Met-tRNAi ternary complex; HRI activation) for O=C(Nc1cccc(Br)c1)N[C@H]1CC[C@H](OCc2c(F)cccc2F)CC1
Result: 1.07

Problem: Quote Emax (F/R) with test system eIF2α phosphorylation (eIF2•GTP•Met-tRNAi ternary complex; HRI activation) for CSc1cccc(NC(=O)N[C@H]2CC[C@H](OCc3c(F)cccc3F)CC2)c1 [II-10m]
Result: 1.01

Problem: Quote Emax (F/R) with test system eIF2α phosphorylation (eIF2•GTP•Met-tRNAi ternary complex; HRI activation) for O=C(Nc1ccccc1)N[C@H]1CC[C@H](OCc2c(F)cccc2F)CC1
Result: 0.89

Problem: Quote Emax (F/R) with test system eIF2α phosphorylation (eIF2•GTP•Met-tRNAi ternary complex; HRI activation) for O=C(Nc1ccccc1[N+](=O)[O-])N[C@H]1CC[C@H](OCc2c(F)cccc2F)CC1
Result: 0.96

Problem: Quote Emax (F/R) with test system eIF2α phosphorylation (eIF2•GTP•Met-tRNAi ternary complex; HRI activation) for Cc1ccccc1NC(=O)N[C@H]1CC[C@H](OCc2c(F)cccc2F)CC1
Result: 0.78

Further cases:
Problem: Quote Emax (F/R) with test system eIF2α phosphorylation (eIF2•GTP•Met-tRNAi ternary complex; HRI activation) for O=C(Nc1ccc(Cl)cc1)N[C@H]1CC[C@H](OCc2c(F)cccc2F)CC1
Result: 0.95

----------
Catalogue of compounds with associated Emax (F/R)
Tested on: eIF2α phosphorylation (eIF2•GTP•Met-tRNAi ternary complex; HRI activation)
Test: surrogate dual luciferase eIF2α phosphorylation (ternary complex) assay
Type: cell-based, human
Settings: 30 μM compound
Dear colleague, please return just the value in F/R, with no unit written.

Use the examples below as a reference point.
Problem: Please indicate Emax (F/R) recorded for O=C(Nc1ccccc1[N+](=O)[O-])N[C@H]1CC[C@H](OCc2c(F)cccc2F)CC1 [II-9o]
Result: 0.74

Problem: Please indicate Emax (F/R) recorded for O=C(Nc1ccccc1OC(F)(F)F)N[C@H]1CC[C@H](OCc2c(F)cccc2F)CC1 [II-6o]
Result: 0.76

Further cases:
Problem: Please indicate Emax (F/R) recorded for O=C(Nc1ccc(Cl)cc1)N[C@H]1CC[C@H](OCc2c(F)cccc2F)CC1 [II-2p]
Result: 0.74

Problem: Please indicate Emax (F/R) recorded for Cc1ccc(NC(=O)N[C@H]2CC[C@H](OCc3c(F)cccc3F)CC2)cc1 [II-7p]
Result: 0.77

Problem: Please indicate Emax (F/R) recorded for O=C(Nc1cccc(Cl)c1)N[C@H]1CC[C@H](OCc2c(F)cccc2F)CC1 [II-2m]
Result: 0.75

----------
System: CRL-2813 human melanoma cancer cells
Assay: cell proliferation (SRB) assay, CRL-2813
Assay type: cell-based
Conditions: Homo sapiens, CRL2813; cell proliferation assay, Table 3; cell line not named, values equal CRL-2813 values of Table 8; read-out: IC50
OUTCOME_MEASURE: pIC50
pIC50 field: float, defined as -log10 of concentration (mol/L).

Use the examples below as a reference point.
Problem: Please indicate pIC50 recorded for O=C(Nc1cccc(C(F)(F)F)c1)NC1CCC(Oc2cccc(F)c2)CC1 (centres unmarked) [Compound I-15]
Result: 5.62

Problem: Please indicate pIC50 recorded for O=C(Nc1cccc(C(F)(F)F)c1)NC1CCC(Oc2ccccc2F)CC1 (centres unmarked) [Compound I-14]
Result: 5.61

Problem: Please indicate pIC50 recorded for O=C(Nc1cccc(C(F)(F)F)c1)NC1CCC(Oc2ccc(OC(F)(F)F)cc2)CC1 (centres unmarked) [Compound I-17]
Result: 6.16

Problem: Please indicate pIC50 recorded for O=C(Nc1cccc(C(F)(F)F)c1)NC1CCC(Oc2ccc(Cl)cc2)CC1 (centres unmarked) [Compound I-16]
Result: 5.70

Problem: Please indicate pIC50 recorded for O=C(Nc1cccc(C(F)(F)F)c1)NC1CCC(Oc2ccccc2C(F)(F)F)CC1 (centres unmarked) [Compound I-19]
Result: 5.85

Further cases:
Problem: Please indicate pIC50 recorded for O=C(Nc1cccc(C(F)(F)F)c1)NC1CCC(Oc2cccc(C(F)(F)F)c2)CC1 (centres unmarked) [Compound I-20]
Result: 5.89

Problem: Please indicate pIC50 recorded for O=C(Nc1cccc(C(F)(F)F)c1)NC1CCC(Oc2ccc(F)cc2)CC1 (centres unmarked) [Compound I-5m]
Result: 5.59

Problem: Please indicate pIC50 recorded for O=C(Nc1cccc(C(F)(F)F)c1)NC1CCC(Oc2ccc(C(F)(F)F)cc2)CC1 (centres unmarked) [Compound I-18]
Result: 6.34

Source of measurements: patent US20160318856A1
